- protocol: NCI Yeast Anticancer Drug Screen. Data for the bub3 strain (AID 167)
- run-parameters: S. cerevisiae bub3 mutant strain, at 50.0 µM, stronger effect = higher value
Compounds without any hit were thinned out: in the full panel of roughly 79,000, 15% have a hit. Active and inactive are the calls of the source. Cut-off read from the data, not from the text of the source: active = growth inhibition above about 70%; inactive = the rest.
quantity-measured: growth inhibition

compound	growth inhibition
Nn1cnnc1	-3.05% (inactive)
C[C@]12CCc3nonc3C1CC[C@@H]1C2CC[C@@]2(C)C1CC[C@@H]2O (stereo partly drawn)	-7.55% (inactive)
CC(Cl)CN(CC(C)Cl)c1ccc2c(c1)Cc1cc([N+](=O)[O-])ccc1-2 (stereo not drawn)	4.5% (inactive)

Here are 2 compounds. What values of growth inhibition were reported for them?
1. O=C(O)c1ccccc1Cl
2. Nc1cccc(SC2CC(=O)N(c3ccc(Cl)cc3C(=O)c3ccccc3)C2=O)c1 (stereo not drawn)

1: 5.2% (inactive); 2: 19.9% (inactive)
